Measured On: 5-hydroxytryptamine receptor 1A (Rattus norvegicus)
Sequence (P19327 whole entry): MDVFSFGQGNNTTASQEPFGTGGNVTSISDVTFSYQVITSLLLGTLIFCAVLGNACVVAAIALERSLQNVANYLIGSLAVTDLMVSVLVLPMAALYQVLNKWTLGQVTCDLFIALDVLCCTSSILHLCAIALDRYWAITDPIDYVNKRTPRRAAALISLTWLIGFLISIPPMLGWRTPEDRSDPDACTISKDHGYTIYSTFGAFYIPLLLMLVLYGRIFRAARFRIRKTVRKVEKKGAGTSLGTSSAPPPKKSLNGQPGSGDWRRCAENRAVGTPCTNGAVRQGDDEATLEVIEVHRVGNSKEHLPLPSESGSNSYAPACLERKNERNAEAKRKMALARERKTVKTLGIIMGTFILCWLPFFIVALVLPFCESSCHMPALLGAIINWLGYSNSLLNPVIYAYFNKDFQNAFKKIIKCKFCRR
Test Summary: Compound was evaluated for binding affinity towards 5-hydroxytryptamine 1A receptor in rat cortex using [3H]-8-OH-DPAT as radioligand
Readout Type: pIC50
Please report pIC50 as the negative decimal logarithm of the molar concentration, giving only the number.

Previously resolved entries follow.
{"columns": ["Structure Smiles String", "pIC50"],
 "data": [
  ["CN(C)CCc1c[nH]c2cc3c(cc12)OCCC3", 5.92],
  ["COc1ccc2[nH]cc(CCN(C)C)c2c1", 7.96],
  ["CN(C)CCc1cn(C)c2ccc3c(c12)CCCO3", 5.27]
]}

Consider the record given below.
Q. Name the recorded pIC50 for "NCCc1c[nH]c2ccc3c(c12)CCCO3" .
A. 6.21
